B1: glmS ribozyme (parent)
chain: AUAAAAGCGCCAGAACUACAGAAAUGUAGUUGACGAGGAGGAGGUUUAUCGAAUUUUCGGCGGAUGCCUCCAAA

- Variants of: B1
- ASSAY COMMENT: self-cleavage kobs at 2500 uM GlcN6P; higher = faster cleavage; RNA array
- EXPERIMENTAL PARAMETERS: with glucosamine-6-phosphate
Fewer inactive variants are shown than the library holds.
RECORDED METRIC: self-cleavage kobs at 2500 uM GlcN6P (s⁻¹)
Give a bare numeral; the unit s⁻¹ is implied.

Examples from the recorded data:
VARIANT ID: A53G C68U
RECORDED METRIC: self-cleavage kobs at 2500 uM GlcN6P
UNIT LABEL: s⁻¹
RECORDED NUMBER: 0.00239
//
VARIANT ID: U31A U56G
RECORDED METRIC: self-cleavage kobs at 2500 uM GlcN6P
UNIT LABEL: s⁻¹
RECORDED NUMBER: 0.00579
//
VARIANT ID: U31A G41A
RECORDED METRIC: self-cleavage kobs at 2500 uM GlcN6P
UNIT LABEL: s⁻¹
RECORDED NUMBER: 0.00078
//
VARIANT ID: G13A C50A U69A
RECORDED METRIC: self-cleavage kobs at 2500 uM GlcN6P
UNIT LABEL: s⁻¹
RECORDED NUMBER: 3.87e-05
//
VARIANT ID: A14G A15U U46C
RECORDED METRIC: self-cleavage kobs at 2500 uM GlcN6P
UNIT LABEL: s⁻¹
RECORDED NUMBER: 0.00169
//
VARIANT ID: G29A A53U
RECORDED METRIC: self-cleavage kobs at 2500 uM GlcN6P
UNIT LABEL: s⁻¹
RECORDED NUMBER: 0.00129
//
VARIANT ID: U45A C58A C71U
RECORDED METRIC: self-cleavage kobs at 2500 uM GlcN6P
UNIT LABEL: s⁻¹
RECORDED NUMBER: 0.000293
//
VARIANT ID: A6U C50G
RECORDED METRIC: self-cleavage kobs at 2500 uM GlcN6P
UNIT LABEL: s⁻¹
RECORDED NUMBER: 0.000434
//
VARIANT ID: G29U A33C G44C
RECORDED METRIC: self-cleavage kobs at 2500 uM GlcN6P
UNIT LABEL: s⁻¹
RECORDED NUMBER: 0.000325
//
VARIANT ID: G40A U45A C70U
RECORDED METRIC: self-cleavage kobs at 2500 uM GlcN6P
UNIT LABEL: s⁻¹
RECORDED NUMBER: 7.49e-05

What measured self-cleavage kobs at 2500 uM GlcN6P goes with `U55C` ? 0.0201

What do you get for C16U A39C ? 0.00222

What about this variant? G40U G41A 7.51e-05

Repeat with A52G C71U 0.00078

Now consider A48G A64G . 7.81e-05

// next record U56A C58G C67U 4.09e-05

Same read-out for A14U U30G G40A ? 0.000424

Then U31A A48C ? 7.42e-05

Another variant to look at: A15C G29U 0.00169

Please give the result for G32U A53C U55A too. 5.38e-05

Same question, U47C A52G this time 0.000226

Also, G13C A14G U56C please. 0.000185
